Test system: Fibroblast
assay_comment: Multiplex assay against human fibroblast
Type: toxicity, cell-based
run_conditions: 12 h, 10 µM, compound concentration 10 uM, replicate 2
Hi all, reminder that labels come from Population Fragmented Nuclei (%), split as class A = under 8%, class B = from 8% up to 60%, class C = 60% and over

Look over these answered cases.
Task item: Category lookup for the molecule CNC(=O)Nc1ccc2c(c1)[C@@]1(CC2)OC(=O)N(CC(=O)N(Cc2ccc(F)cc2)[C@@H](C)C(F)(F)F)C1=O [A-486]
Reply: class B

Task item: Category lookup for the molecule C[C@]12CC[C@@H]3c4ccc(O)cc4CC[C@H]3[C@@H]1CC[C@@H]2O [ESTRADIOL]
Reply: class B

Task item: Category lookup for the molecule C=CC(=O)Nc1ccc2[nH]c(=O)n(C3CCN(Cc4ccc(-c5nc6cc[nH]c(=O)c6cc5-c5ccccc5)cc4)CC3)c2c1 [Borussertib]
Reply: class C

Alright, here's another molecule for you.
Task item: Category lookup for the molecule Cc1ccc(C)c(Oc2ccncc2C(=O)N2CCN(C3CC3)c3ccccc32)c1
Reply: class A
